Data credit: patent US11419869B2

# systemName: recombinant human integrin αvβ6 (Homo sapiens (Human), UniProt P06756+P18564)
# Sequence (P06756 31-992): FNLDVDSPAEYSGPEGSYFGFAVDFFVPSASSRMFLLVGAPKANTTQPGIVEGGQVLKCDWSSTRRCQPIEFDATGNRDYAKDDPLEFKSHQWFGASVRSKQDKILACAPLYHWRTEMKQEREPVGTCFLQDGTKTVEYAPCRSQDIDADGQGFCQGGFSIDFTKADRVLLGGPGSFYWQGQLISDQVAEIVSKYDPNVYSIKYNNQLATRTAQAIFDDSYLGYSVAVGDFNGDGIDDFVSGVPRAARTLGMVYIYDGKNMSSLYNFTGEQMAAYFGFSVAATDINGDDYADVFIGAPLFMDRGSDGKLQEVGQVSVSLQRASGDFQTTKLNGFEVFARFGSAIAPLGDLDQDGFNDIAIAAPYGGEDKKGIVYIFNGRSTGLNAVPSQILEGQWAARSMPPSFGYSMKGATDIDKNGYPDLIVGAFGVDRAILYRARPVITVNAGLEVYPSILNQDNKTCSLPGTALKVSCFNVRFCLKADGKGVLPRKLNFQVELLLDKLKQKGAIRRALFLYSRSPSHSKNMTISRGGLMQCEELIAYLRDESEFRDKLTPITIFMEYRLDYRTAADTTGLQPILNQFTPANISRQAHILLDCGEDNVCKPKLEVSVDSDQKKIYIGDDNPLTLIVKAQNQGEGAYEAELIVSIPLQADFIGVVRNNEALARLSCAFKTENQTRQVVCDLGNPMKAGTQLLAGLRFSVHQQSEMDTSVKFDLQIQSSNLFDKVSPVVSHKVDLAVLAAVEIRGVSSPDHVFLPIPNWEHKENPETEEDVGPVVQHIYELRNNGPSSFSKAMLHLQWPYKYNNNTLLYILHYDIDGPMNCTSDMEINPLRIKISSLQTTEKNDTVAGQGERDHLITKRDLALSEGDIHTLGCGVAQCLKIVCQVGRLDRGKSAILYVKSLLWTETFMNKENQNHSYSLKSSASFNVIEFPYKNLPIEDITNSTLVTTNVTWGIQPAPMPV
# Sequence (P18564 22-707): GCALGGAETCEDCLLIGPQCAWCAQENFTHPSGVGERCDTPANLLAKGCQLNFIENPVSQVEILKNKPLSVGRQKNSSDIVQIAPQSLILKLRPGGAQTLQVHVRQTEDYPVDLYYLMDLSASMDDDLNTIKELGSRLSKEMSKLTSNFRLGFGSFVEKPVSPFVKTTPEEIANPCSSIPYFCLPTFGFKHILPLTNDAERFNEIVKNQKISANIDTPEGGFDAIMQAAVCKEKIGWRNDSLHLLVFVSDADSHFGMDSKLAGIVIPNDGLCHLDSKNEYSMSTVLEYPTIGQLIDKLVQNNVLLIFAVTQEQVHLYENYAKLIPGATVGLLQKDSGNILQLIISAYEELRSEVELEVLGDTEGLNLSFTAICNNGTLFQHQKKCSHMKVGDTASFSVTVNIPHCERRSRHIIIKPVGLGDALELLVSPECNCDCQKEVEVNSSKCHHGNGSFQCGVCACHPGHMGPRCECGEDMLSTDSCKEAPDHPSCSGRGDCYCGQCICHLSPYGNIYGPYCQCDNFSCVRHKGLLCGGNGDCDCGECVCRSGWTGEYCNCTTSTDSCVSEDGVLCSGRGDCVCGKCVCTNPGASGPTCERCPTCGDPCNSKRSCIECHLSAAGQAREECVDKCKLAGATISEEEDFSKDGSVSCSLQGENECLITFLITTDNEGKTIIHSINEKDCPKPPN
# assayInfo: Solid Phase Integrin αvβ6 Binding Assay (Examples B1, B2)
# testContext: TGFβ1 LAP ligand, values given in four ranges, read-out: αvβ6 Inhibition IC50 (nM)-range
# Experimental: Microplates were coated with recombinant human integrin αvβ6 (2 μg/mL) in PBS (100 μL/well 25° C., overnight). The coating solution was removed, washed with wash buffer (0.05% Tween 20; 0.5 mM MnCl2; in 1×TBS). The plate was blocked with 200 μL/well of Block Buffer (1% BSA; 5% sucrose; 0.5 mM MnCl2; in 1×TBS) at 37° C. for 2 h. […] Bound antibody was detected by peroxidase-conjugated streptavidin. The IC50 values for testing compounds were calculated by four-parameter logistic regression. […]

- molecule: "COCCN(CCCCc1ccc2c(n1)NCCC2)CC[C@H](Nc1cc(C(F)(F)F)nc(C)n1)C(=O)O [Compound 22]"
  IC50: "< 50 nM"
- molecule: "COCCN(CCCCc1ccc2c(n1)NCCC2)CC[C@H](Nc1nc(C)nc2ccccc12)C(=O)O [Compound 10]"
  IC50: "< 50 nM"
- molecule: "CO[C@H](C)CN(CCCCc1ccc2c(n1)NCCC2)CC[C@H](Nc1ccnc(-c2ccccc2)n1)C(=O)O [Compound 73]"
  IC50: "< 50 nM"
- molecule: "COCCN(CCCCc1ccc2c(n1)NCCC2)CC[C@H](Nc1ncnc2cc(F)c(F)cc12)C(=O)O [Compound 21]"
  IC50: "< 50 nM"
- molecule: "CS(=O)(=O)CCN(CCCCc1ccc2c(n1)NCCC2)CC[C@H](Nc1cc(-n2cccn2)ncn1)C(=O)O [Compound 126]"
  IC50: "> 1000 nM"
- molecule: "O=C(O)[C@H](CCN(CCCCc1ccc2c(n1)NCCC2)CC(F)F)Nc1ncc(C(F)(F)F)cn1 [Compound 95]"
  IC50: "> 1000 nM"
- molecule: "O=C(O)[C@H](CCN(CCCCc1ccc2c(n1)NCCC2)CCOCC(F)(F)F)Nc1ncnc2ccccc12 [Compound 39]"
  IC50: "< 50 nM"
- molecule: "CCOCCN(CCCCc1ccc2c(n1)NCCC2)CC[C@H](Nc1ncnc2ccccc12)C(=O)O [Compound 55]"
  IC50: "< 50 nM"
- molecule: "Cc1nc(N[C@@H](CCN(CCCCc2ccc3c(n2)NCCC3)CCOc2cccnc2C)C(=O)O)c2ccc(F)cc2n1 [Compound 53]"
  IC50: "< 50 nM"
- molecule: "O=C(O)[C@H](CCN(CCCCc1ccc2c(n1)NCCC2)CCOc1cc(F)cc(F)c1)Nc1ncnc2ccccc12 [Compound 47]"
  IC50: "< 50 nM"
- molecule: "COC[C@@H](F)CN(CCCCc1ccc2c(n1)NCCC2)CC[C@H](Nc1ncncc1-c1ccccc1)C(=O)O [Compound 110]"
  IC50: "< 50 nM"
- molecule: "O=C(O)[C@H](CCN(CCCCc1ccc2c(n1)NCCC2)CC(F)F)Nc1ncc(C2CC2)cn1 [Compound 146]"
  IC50: "> 1000 nM"
- molecule: "O=C(O)[C@H](CCN(CCCCc1ccc2c(n1)NCCC2)CC(F)F)Nc1ccncn1 [Compound 120]"
  IC50: "> 1000 nM"
- molecule: "COCCN(CCCCc1ccc2c(n1)NCCC2)CC[C@H](Nc1ncnc2cc(F)ccc12)C(=O)O [Compound 7]"
  IC50: "< 50 nM"
- molecule: "CC(=O)NCCN(CCCCc1ccc2c(n1)NCCC2)CC[C@H](Nc1ncnc2ccccc12)C(=O)O [Compound 63]"
  IC50: "< 50 nM"
